Numbers sourced from patent US20260116991A1.

pEC50 by entry:
molecular target: T1, GPC3 endogenously expressed on HepG2 cells (UniProt P51654 25-554); assay: FACS on HepG2 cells;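 also: flow cytometric binding of chimeric antibodies to cells, read as mean fluorescence intensity, EC50 obtained by curve fitting of the MFI data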
T1 construct: whole, on cells
Schema: pEC50 number; meaning minus log10 of the concentration expressed in molar units.

Take a look at these entries with their results.
binder	test-value
F1.73.9 human-murine chimeric antibody (antibody, human IgG1, kappa, V domains shown) VH: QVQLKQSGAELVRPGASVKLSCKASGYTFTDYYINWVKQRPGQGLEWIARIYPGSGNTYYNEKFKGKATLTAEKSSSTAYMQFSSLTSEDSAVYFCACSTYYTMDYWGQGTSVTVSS VL: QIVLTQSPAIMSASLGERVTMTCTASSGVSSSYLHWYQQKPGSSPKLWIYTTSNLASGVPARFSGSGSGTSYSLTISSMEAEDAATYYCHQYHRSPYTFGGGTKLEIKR	9.60
F1.118.4 human-murine chimeric antibody (antibody, human IgG1, kappa, V domains shown) VH: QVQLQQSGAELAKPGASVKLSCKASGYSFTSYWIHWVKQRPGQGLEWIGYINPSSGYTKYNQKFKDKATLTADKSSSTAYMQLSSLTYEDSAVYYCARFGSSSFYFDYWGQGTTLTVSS VL: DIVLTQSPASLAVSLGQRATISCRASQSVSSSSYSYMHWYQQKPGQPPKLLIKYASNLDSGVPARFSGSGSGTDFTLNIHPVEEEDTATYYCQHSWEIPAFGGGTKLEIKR	9.48
F1.92.17 human-murine chimeric antibody (antibody, human IgG1, kappa, V domains shown) VH: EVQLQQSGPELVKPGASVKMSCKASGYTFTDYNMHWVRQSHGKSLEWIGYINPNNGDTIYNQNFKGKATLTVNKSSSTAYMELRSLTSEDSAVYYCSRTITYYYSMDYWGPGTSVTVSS VL: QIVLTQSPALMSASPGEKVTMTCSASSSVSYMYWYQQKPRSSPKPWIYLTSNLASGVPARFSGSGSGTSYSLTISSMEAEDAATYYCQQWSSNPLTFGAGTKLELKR	8.54

# context switch: different binder, same pEC50
I am curious: what pEC50 value has been reported for F1.136.7 human-murine chimeric antibody (antibody, human IgG1, kappa, V domains shown) VH: EVQLQQSGPVMVKPGPSVKISCQTSGFTFTDYYIHWVKQSHGKSLEWIGLVFPYDGGTNYNQKFKDKATLTLDTSSSTAYMELNSLTSEDSAVYYCARAGGFSYALNYWGQGTSVTVSS VL: DIQMTQSPSSLSASLGGKVTITCKASQDINNYIAWYQHKPGKGPRLLIHFTSTLQPGIPSRFSGSGSGRDYSFSISNLEPEDIATYYCLQYDNLLLTFGAGTKLELKR ? 8.70
